This collection of values is drawn from patent US20190322750A1.

target: T1, PD-L1-His (human, UniProt Q9NZQ7); assay: competition ELISA: PD-L1-His pre-incubated with the antibody, then on coated PD-1-Fc (blocked ligand); % of max absorbance
T1 construct: recombinant, His-tagged; also called human PD-L1-His (S1479, Y-Biologics)
T1 sequence (Q9NZQ7 19-238 limits assumed): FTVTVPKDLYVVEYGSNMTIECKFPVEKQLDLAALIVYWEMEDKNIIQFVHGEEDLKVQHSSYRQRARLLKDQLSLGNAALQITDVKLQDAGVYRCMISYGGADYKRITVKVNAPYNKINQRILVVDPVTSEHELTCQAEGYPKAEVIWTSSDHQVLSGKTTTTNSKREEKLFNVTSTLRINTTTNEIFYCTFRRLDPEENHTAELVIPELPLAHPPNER
Kindly supply the reported pIC50 values for the records listed here.
Answers are plain numbers, as −log10 of the molar value.

# count of solved cases: 3
PD-L1-16E12-LS-4F5 (Kappa) (antibody, V domains shown) VH: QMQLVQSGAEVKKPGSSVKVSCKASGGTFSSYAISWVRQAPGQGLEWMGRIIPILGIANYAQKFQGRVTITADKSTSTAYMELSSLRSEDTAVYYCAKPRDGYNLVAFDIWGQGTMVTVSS VL: QLVLTQPPSVSGAPGQRVTISCTGSSSNIGAGYDVHWYQQLPGAAPKLLIYGDINRPSGVPDRFSGSKSGISASLAITGLQAEDEADYYCQSYDSSLSGGVFGGGTKLTVL
8.12
PD-L1-16E12 (WT/kappa) (antibody, V domains shown, also called PD-L1-16E12-Kappa) VH: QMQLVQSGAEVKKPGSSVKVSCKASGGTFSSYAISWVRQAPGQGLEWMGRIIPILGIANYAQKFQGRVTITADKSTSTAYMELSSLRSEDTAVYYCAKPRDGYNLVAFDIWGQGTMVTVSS VL: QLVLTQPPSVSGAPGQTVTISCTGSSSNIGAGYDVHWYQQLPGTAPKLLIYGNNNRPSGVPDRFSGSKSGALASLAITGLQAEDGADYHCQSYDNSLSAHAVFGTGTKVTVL
8.10
PD-L1-16E12 (WT/Lambda) (antibody, V domains shown) VH: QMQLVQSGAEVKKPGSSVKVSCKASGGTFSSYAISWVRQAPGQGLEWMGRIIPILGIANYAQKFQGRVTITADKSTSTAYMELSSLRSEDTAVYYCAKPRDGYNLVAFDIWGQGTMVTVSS VL: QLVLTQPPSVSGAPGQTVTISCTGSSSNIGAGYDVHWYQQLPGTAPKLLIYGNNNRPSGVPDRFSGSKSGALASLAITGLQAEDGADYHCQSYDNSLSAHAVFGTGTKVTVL
8.04

Now consider the entry below.
Q) Item under review: PD-L1-16E12-LS-4F5 (Lambda) (antibody, V domains shown) VH: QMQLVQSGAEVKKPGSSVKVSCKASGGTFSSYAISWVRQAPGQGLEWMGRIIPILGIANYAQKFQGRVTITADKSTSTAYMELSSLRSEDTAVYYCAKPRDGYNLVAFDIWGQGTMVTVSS VL: QLVLTQPPSVSGAPGQRVTISCTGSSSNIGAGYDVHWYQQLPGAAPKLLIYGDINRPSGVPDRFSGSKSGISASLAITGLQAEDEADYYCQSYDSSLSGGVFGGGTKLTVL . Reported pIC50?
A) 8.16
